subject_of_test: T1, PABPN1 (UniProt Q86U42 1-306)
T1 sequence: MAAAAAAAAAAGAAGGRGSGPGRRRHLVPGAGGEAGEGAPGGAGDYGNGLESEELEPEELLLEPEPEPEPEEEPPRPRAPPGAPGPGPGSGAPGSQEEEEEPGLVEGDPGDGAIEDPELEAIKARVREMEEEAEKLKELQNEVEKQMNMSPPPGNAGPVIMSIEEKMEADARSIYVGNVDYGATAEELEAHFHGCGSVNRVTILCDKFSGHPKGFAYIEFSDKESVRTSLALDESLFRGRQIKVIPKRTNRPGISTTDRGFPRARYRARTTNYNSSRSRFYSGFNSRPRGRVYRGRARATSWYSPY
assay_protocol: competition
quantity_measured: pIC50
# pIC50: negative log10 of molar concentration; output just the value

Return the recorded pIC50 value; entry: AAAAAAAAAAAAAAA (ssRNA) [unlabeled poly(A) 15-mer]
6.10
